Every entry's value here was drawn from ChEMBL document CHEMBL1201862.

system: MDA-N; experiment: NCI tumour cell line growth inhibition, 48 h
Active and inactive are the calls of the source. Cut-off read from the data, not from the text of the source: active = GI50 up to about 1.1 µM and inactive = higher.
Give one outcome, nothing more. List: Y = active, N = inactive

| molecule | experimental target | label |
| --- | --- | --- |
| O=Cc1ccc2c(c1)CC1(Cc3ccccc3C1)C2 | MDA-N | N |
| CC1=CC[C@@]2(CO)[C@@H]([C@@H]1C)[C@H]1CC[C@@H]3[C@@]4(C)CC[C@H](O)C(C)(C)[C@@H]4CC[C@@]3(C)[C@]1(C)C[C@@H]2O | MDA-N | N |
| CC1CC[C@]2(C(=O)O)CCC3(C)C(=C2[C@H]1C)C=CC1[C@@]2(C)CC[C@H](O)C(C)(C)C2CC[C@]13C (some centres not stated) | MDA-N | N |

Request: Call for entry S=C1Nc2ccccc2SC1c1ccccc1 (configuration not stated) :
Result: N

Request: Call for entry CC1(C)OCC(CO)(Nc2nc(N3CC3)nc(N3CC3)n2)CO1 :
Result: N

Request: Call for entry CC1OC2OC3C(OCC(O)C3O)OC(=O)[C@]34CCC(C)(C)CC3C3=CCC5[C@@]6(C)C[C@H](O)[C@H](OC7OC(CO)C(O)C(O)C7OC7OC(COC(=O)CC(C)(O)CC(=O)OC1C(OC1OC(CO)C(O)C(O)C1O)C2O)C(O)C(O)C7O)[C@@](C)(CO)C6CC[C@@]5(C)[C@]3(C)CC4 (some centres not stated) :
Result: N

Request: Call for entry Cc1ccc2c(c1)C1(C)OC(C=CC1=O)O2 (configuration not stated) :
Result: Y
